Hey, just so you know, these numbers are from PubChem BioAssay (Tox21).

- testName: qHTS assay to identify small molecule antagonists of the estrogen receptor alpha (ER-alpha) signaling pathway using the BG1 cell line (AID 743080);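 also: BG1 cells stimulated with 17beta-estradiol alongside compound; nearly all actives have a fitted effect of over 25% in size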; also: potency is read from the fitted curve at half-maximal effect
- assaySetup: BG1Luc4E2 ERE-luciferase antagonist mode, luminescence; series mostly up to 70.3 µM
Records with an inconclusive call do not appear. Activity calls are given as the source filed them. Calls follow the shape of the full dose curve. Positions of bridges follow the written chain, without caps; N, C: chain ends. Non-standard residues stand in square brackets, D forms with d. Residues, ends and D or L forms follow the SMILES beside them. *: point of attachment. X1 = CC[C@@H](C)[C@@H](N)C1=N[C@H](C(=O)*)CS1; d(aIle) = CC[C@H](C)[C@@H](N)C(=O)O; dOrn = NCCC[C@@H](N)C(=O)O

molecule: CC1=C(/C=C/C(C)=C/C=C/C(C)=C\C(=O)O)C(C)(C)CCC1
Potency: 244 nM (active)
--
molecule: NC(=O)C1c2ccccc2CCc2ccccc21
Potency: inactive
--
molecule: COc1ccc(/C=N/NC(=O)c2ccncc2)c(C(=O)O)c1OC
Potency: inactive
--
molecule: NCCCC[C@H](NC(=O)[C@@H]1CCCN1C(=O)[C@@H]1CSSC[C@H](N)C(=O)N[C@@H](Cc2ccc(O)cc2)C(=O)N[C@@H](Cc2ccccc2)C(=O)N[C@@H](CCC(N)=O)C(=O)N[C@@H](CC(N)=O)C(=O)N1)C(=O)NCC(N)=O
Potency: inactive
--
molecule: C1CCc2nnnn2CC1
Potency: inactive
--
molecule: COC(=O)C[C@](O)(CCCC(C)(C)O)C(=O)O[C@@H]1C(OC)=CC23CCCN2CCc2cc4c(cc2[C@H]13)OCO4 (stereo not given in full)
Potency: 168 nM (active)
--
molecule: CC[C@@H](C)[C@@H](N)C1=N[C@H](C(=O)N[C@@H](CC(C)C)C(=O)N[C@@H](CCC(=O)O)C(=O)N[C@@H](C(=O)N[C@@H]2CCCCNC(=O)[C@@H](CC(N)=O)NC(=O)[C@@H](CC(=O)O)NC(=O)[C@@H](Cc3cnc[nH]3)NC(=O)[C@@H](Cc3ccccc3)NC(=O)[C@@H]([C@H](C)CC)NC(=O)[C@@H](CCCN)NC2=O)[C@@H](C)CC)CS1 (X1-LE[d(aIle)][dK][dOrn][dI][dF][dH][dD][dN]; lactam 4-C)
Potency: inactive
--
molecule: CO/N=C(\C(=O)N[C@@H]1C(=O)N2C(C(=O)O)=C(CSc3cnns3)CS[C@H]12)c1csc(N)n1
Potency: inactive
--
molecule: CC1(C)S[C@@H]2[C@H](N3C(=O)C(c4ccccc4)NC3(C)C)C(=O)N2[C@H]1C(=O)O (stereo not given in full)
Potency: inactive
--
molecule: NC(=O)CC[C@@H]1NC(=O)[C@H](Cc2ccccc2)NC(=O)[C@H](Cc2ccc(O)cc2)NC(=O)[C@@H](N)CSSC[C@@H](C(=O)N2CCC[C@H]2C(=O)N[C@@H](CCCN=C(N)N)C(=O)NCC(N)=O)NC(=O)[C@H](CC(N)=O)NC1=O
Potency: inactive

###

- testName: qHTS assay to identify small molecule antagonists of the thyroid receptor (TR) signaling pathway - cell viability counter screen (AID 743064); also: nearly all actives have a fitted effect of over 50% in size
- assaySetup: GH3.TRE-Luc viability, CellTiter-Fluor, 24 h; series mostly up to 70.3 µM
Results filed as inconclusive are left out. The source made the active and inactive calls. Calls come from the whole dose curve; as a rule, active = well fitted cell-killing curve with a large enough effect in the repeat runs; inconclusive = weak or mixed curves, or effect the other way; inactive = no such curve, though single readings can be large or run the other way.
Labels: active, inactive

sampleSmiles: CC[C@H]1OC(=O)C[C@@H](O)[C@H](C)[C@@H](O[C@@H]2O[C@H](C)[C@@H](O)[C@H](N(C)C)[C@H]2O)[C@@H](CCN2C[C@H](C)C[C@H](C)C2)C[C@@H](C)C(=O)/C=C/C(C)=C/[C@@H]1CO[C@@H]1O[C@H](C)[C@@H](O)[C@@H](OC)[C@H]1OC
category: inactive
//
sampleSmiles: CN1CC[C@H](c2c(O)cc(O)c3c(=O)cc(-c4ccccc4Cl)oc23)[C@H](O)C1
category: active
//
sampleSmiles: COC(=O)[C@H]1[C@H]2C[C@H]3c4[nH]c5ccccc5c4CCN3C[C@H]2CC[C@@H]1O
category: inactive

###

- targetEntity: Luciferin 4-monooxygenase (Photinus pyralis)
- testName: qHTS assay to identify small molecule inhibitors of firefly luciferase (AID 1224835); also: nearly all actives have a fitted effect of over 25% in size
- assaySetup: purified P. pyralis luciferase, luminescence inhibition; series mostly up to 115 µM
Records with an inconclusive call do not appear. Active and inactive are the calls of the source. Calls come from the whole dose curve; as a rule, active = well fitted inhibition curve with a large enough effect in the repeat runs; inconclusive = weak or mixed curves; inactive = flat fitted curve, though single readings scatter.

molecule: O=c1cc[nH]cc1
outcome: inactive
//
molecule: Cc1ccc(C=O)cc1
outcome: inactive
//
molecule: C=C(C)CCO
outcome: inactive
//
molecule: CC1(C)[C@H](C(=O)OCc2cccc(Oc3ccccc3)c2)[C@@H]1C=C(Cl)Cl
outcome: inactive
//
molecule: CC/C=C(\C)C=O
outcome: inactive
//
molecule: O=C1Cc2ccccc2C1
outcome: inactive
//
molecule: Nc1c(Br)cc([N+](=O)[O-])cc1Br
outcome: inactive
//
molecule: CC(CC(C)(C)C)CC(C)(C)CC(C)(C)C (stereo not drawn)
outcome: inactive

###

- testName: Human pregnane X receptor (PXR) small molecule agonists, qHTS cell viability counter screen (AID 1346977); also: nearly all actives have a fitted effect of over 50% in size
- assaySetup: PXR-Luc HepG2 viability, CellTiter-Fluor, 24 h; series mostly up to 92.4 µM
Records with an inconclusive call do not appear. The source made the active and inactive calls. Calls follow the shape of the dose curve; as a rule, active = well fitted cell-killing curve with a large enough effect in the repeat runs; inconclusive = weak or mixed curves, or effect the other way; inactive = flat fitted curve, though single readings scatter.
Outcomes: active, inactive

molecule: CN1CCN(c2ccccc2/C=C2\SCCN(c3ccc(Cl)c(Cl)c3)C2=O)CC1
category: active

molecule: O=C1CCC(=O)N1
category: inactive

molecule: Cc1c[nH]c(=O)[nH]c1=O
category: inactive

molecule: CCc1cccc(C)c1N(C(=O)CS(=O)(=O)O)C(C)COC (stereo not given)
category: inactive

molecule: CCCCCN=C(N)N/N=C/c1c[nH]c2ccc(OC)cc12
category: active

molecule: CC(C)(C)c1cc(CCC(=O)OCCSCCOC(=O)CCc2cc(C(C)(C)C)c(O)c(C(C)(C)C)c2)cc(C(C)(C)C)c1O
category: inactive

molecule: COc1cc(OC)nc(NC(=O)NS(=O)(=O)Nc2ccccc2C(=O)N(C)C)n1
category: inactive

molecule: c1ccc2occc2c1
category: inactive

molecule: Oc1ccc(C2(c3ccc(O)c(C4CCCCC4)c3)CCCCC2)cc1C1CCCCC1
category: active

molecule: Nc1c(Br)cc([N+](=O)[O-])cc1Br
category: inactive

molecule: CC(C)=CCC[C@H](C)CC=O
category: inactive

molecule: C1CCSC1
category: inactive

molecule: Oc1ccc(Cl)cc1C1CCCC1
category: inactive

molecule: CCC(C)(C)c1ccc(CC(C)CN2C[C@@H](C)O[C@@H](C)C2)cc1 (stereo not given in full)
category: inactive

molecule: CN[C@H]1CC[C@@H](c2ccc(Cl)c(Cl)c2)c2ccc(S(N)(=O)=O)cc21
category: active

molecule: NC(=O)c1ccccc1Cl
category: inactive

molecule: Nc1ccc2c(S(=O)(=O)O)cccc2c1S(=O)(=O)O
category: inactive

molecule: CC(C=O)c1ccccc1 (stereo not given)
category: inactive

molecule: Clc1ccc2c(Cl)ccnc2c1
category: inactive

molecule: Cc1cc(F)ccc1-c1cc(N2CC[C@@H](O)[C@H]2CO)ncc1N(C)C(=O)C(C)(C)c1cc(C(F)(F)F)cc(C(F)(F)F)c1
category: active

###

- targetEntity: Luciferin 4-monooxygenase (Photinus pyralis)
- testName: qHTS assay to identify small molecule inhibitors of firefly luciferase (AID 1224835); also: nearly all actives have a fitted effect of over 25% in size
- assaySetup: purified P. pyralis luciferase, luminescence inhibition; series mostly up to 115 µM
Results filed as inconclusive are left out. Calls of active or inactive are those of the source. The call rests on the fitted dose curve; in most records, active means well fitted inhibition curve with a large enough effect in the repeat runs; inconclusive means weak or mixed curves; inactive means flat fitted curve, though single readings scatter.
quantityMeasured: outcome

sampleSmiles: Cn1ccnc1
quantityMeasured: outcome
result: inactive
--
sampleSmiles: C1CCSC1
quantityMeasured: outcome
result: inactive
--
sampleSmiles: Nc1ccc2c(S(=O)(=O)O)cccc2c1S(=O)(=O)O
quantityMeasured: outcome
result: inactive

###

- targetEntity: Cytochrome P450 1A2 (Homo sapiens) (UniProt P05177)
- Sequence (P05177 whole entry, looked up): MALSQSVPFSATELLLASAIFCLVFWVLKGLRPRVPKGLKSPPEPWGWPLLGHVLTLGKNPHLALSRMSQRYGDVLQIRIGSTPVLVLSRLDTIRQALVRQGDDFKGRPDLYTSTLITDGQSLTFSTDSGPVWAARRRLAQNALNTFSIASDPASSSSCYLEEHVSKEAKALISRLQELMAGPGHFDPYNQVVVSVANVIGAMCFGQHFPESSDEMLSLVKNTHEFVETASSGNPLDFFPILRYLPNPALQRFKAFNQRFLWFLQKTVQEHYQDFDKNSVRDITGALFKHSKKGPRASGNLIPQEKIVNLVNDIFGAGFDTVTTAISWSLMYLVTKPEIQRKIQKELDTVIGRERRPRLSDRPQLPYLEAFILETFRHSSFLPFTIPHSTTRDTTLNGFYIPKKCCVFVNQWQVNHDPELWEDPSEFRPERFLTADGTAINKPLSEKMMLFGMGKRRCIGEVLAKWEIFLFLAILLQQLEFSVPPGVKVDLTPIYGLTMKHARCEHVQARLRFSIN
- testName: Cytochrome P450 Family 1 Subfamily A Member 2 (CYP1A2) small molecule antagonists: luciferase reporter qHTS assay (AID 1671199); also: nearly all actives have a fitted effect of over 50% in size
- assaySetup: P450-Glo CYP1A2 enzyme, luciferin luminescence, 1 h; series mostly up to 115 µM
Inconclusive results are not listed. Calls of active or inactive are those of the source. The call rests on the fitted dose curve; in most records, active means well fitted inhibition curve with a large enough effect in the repeat runs; inconclusive means weak or mixed curves; inactive means no such curve, though single readings can be large or run the other way.
Outcome codes: active, inactive

sampleSmiles: CC(O)(c1ccc(Cl)cc1)c1ccc(Cl)cc1
category: active
//
sampleSmiles: CC(=O)Nc1ccc(N=Nc2cc(C)ccc2O)cc1
category: active
//
sampleSmiles: Cn1c(=O)[nH]c2ncn(C)c2c1=O
category: inactive
//
sampleSmiles: Nc1ccc(Cl)c([N+](=O)[O-])c1
category: active
//
sampleSmiles: CCSCC
category: inactive

###

- targetEntity: Nuclear receptor ROR-gamma (Homo sapiens)
- testName: qHTS assay to identify small molecule antagonists of the retinoid-related orphan receptor gamma (ROR-gamma) signaling pathway (AID 1159521; also: nearly all actives have a fitted effect of over 50% in size)
- assaySetup: Tet-on RORgamma CHO cells, RORE-luciferase, 16 h; series mostly up to 92.4 µM
Inconclusive results are not listed. Activity calls are given as the source filed them. Calls come from the whole dose curve; as a rule, active = well fitted inhibition curve with a large enough effect in the repeat runs; inconclusive = weak or mixed curves, or effect the other way; inactive = no such curve, though single readings can be large or run the other way.
Labels: active, inactive

molecule: COc1cc(/C=C/C(=O)CC(=O)/C=C/c2ccc(O)c(OC)c2)ccc1O
category: active
//
molecule: Nc1cc([N+](=O)[O-])ccc1Cl
category: inactive
//
molecule: C=C1CC[C@H]2O[C@]2(C)CC[C@@H]2[C@@H]1CC2(C)C
category: inactive
//
molecule: CCCCCCCCCCCCN1CCCC1=O
category: inactive
//
molecule: SC1CCCCC1
category: inactive
//
molecule: CCCCCCCCCCCC(=O)Cl
category: inactive
//
molecule: CC(C=O)c1ccccc1 (stereo not drawn)
category: inactive
//
molecule: C=C(C)C1CCC(C)CC1O (stereo not drawn)
category: inactive
